Biological target: recombinant human MAO-A (monoamine oxidase-A) (Homo sapiens)
Construct: purchased Sigma-Aldrich
Sequence (P21397 1-527): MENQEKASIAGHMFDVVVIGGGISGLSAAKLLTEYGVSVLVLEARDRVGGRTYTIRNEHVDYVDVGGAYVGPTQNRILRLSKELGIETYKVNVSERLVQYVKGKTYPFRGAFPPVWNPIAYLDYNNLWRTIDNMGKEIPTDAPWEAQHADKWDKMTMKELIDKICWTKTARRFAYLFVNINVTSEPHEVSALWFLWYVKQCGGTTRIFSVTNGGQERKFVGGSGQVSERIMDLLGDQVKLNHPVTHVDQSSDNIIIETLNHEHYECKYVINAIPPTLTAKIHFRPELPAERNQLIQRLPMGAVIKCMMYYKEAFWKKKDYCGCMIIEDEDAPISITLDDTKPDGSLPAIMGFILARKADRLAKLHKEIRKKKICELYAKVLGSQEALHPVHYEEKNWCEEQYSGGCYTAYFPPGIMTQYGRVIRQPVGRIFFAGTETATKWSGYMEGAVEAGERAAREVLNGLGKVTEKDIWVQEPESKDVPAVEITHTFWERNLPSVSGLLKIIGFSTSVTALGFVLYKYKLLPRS
Assay: Activity on recombinant human MAO-A, method similar to the VAP-1 assay
Assay type: biochemical
Conditions: substrate 0.5 mM tyramine; read-out: Inhibitory Activity (IC50, nM) MAO-A
Structures can show the parent of a compound that is named as a salt.
Experimental readout: IC50

Would you please look over these solved cases?
NC/C(=C\F)Cn1ncn(Cc2ccc(-c3cc(F)c4c(c3)CCC(=O)N4)s2)c1=O [Example 80] = > 100000 nM
NC/C(=C\F)Cn1ncn(Cc2ccc(-c3ccnnc3)s2)c1=O [Example 175] = > 100000 nM
CCn1cc(-c2ccc(Cn3cnn(C/C(=C/F)CN)c3=O)s2)cn1 [Example 153] = > 100000 nM
CNS(=O)(=O)c1cccc(-c2ccc(Cn3cnn(C/C(=C/F)CN)c3=O)s2)c1 [Example 8, hydrochloride] = > 100000 nM
NC/C(=C\F)Cn1ncn(CCc2ccc(-c3ccc(C(F)(F)F)nc3)s2)c1=O [Example 217] = > 100000 nM

Lab note: NC/C(=C\F)Cn1ncn(Cc2ccc(C#Cc3ccc4c(c3)NCCO4)s2)c1=O [Example 134] gave IC50 of 7100 nM

Recorded IC50 (molecule NC/C(=C\F)Cn1ncn(Cc2ccc(-c3ccc(N4CCCC4=O)cc3)s2)c1=O [Example 21, hydrochloride] ): > 100000 nM

Entry under test: Cn1nccc1-c1ccc(Cn2cnn(C/C(=C/F)CN)c2=O)s1 [Example 156] . Its IC50 was > 100000 nM

* * *

Some compounds, each annotated with its measured IC50.
Target: recombinant human MAO-A (monoamine oxidase-A) (Homo sapiens, UniProt P21397)
Construct: purchased Sigma-Aldrich
Sequence (P21397 1-527): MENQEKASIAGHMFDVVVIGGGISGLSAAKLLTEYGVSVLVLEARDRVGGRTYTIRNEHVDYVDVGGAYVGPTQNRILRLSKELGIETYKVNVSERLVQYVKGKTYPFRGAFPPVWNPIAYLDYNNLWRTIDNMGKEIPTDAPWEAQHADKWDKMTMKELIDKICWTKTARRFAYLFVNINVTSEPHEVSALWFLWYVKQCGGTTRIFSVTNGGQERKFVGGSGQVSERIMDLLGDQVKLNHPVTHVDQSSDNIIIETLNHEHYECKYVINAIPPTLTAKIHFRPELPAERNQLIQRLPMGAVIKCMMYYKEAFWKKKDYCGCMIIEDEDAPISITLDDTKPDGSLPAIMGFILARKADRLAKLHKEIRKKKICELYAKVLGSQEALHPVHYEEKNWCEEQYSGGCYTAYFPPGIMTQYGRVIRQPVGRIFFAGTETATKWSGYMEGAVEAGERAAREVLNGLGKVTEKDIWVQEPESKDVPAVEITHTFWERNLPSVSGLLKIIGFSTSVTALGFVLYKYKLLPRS
Assay: Activity on recombinant human MAO-A, method similar to the VAP-1 assay
Format: biochemical
Conditions: substrate 0.5 mM tyramine; read-out: Inhibitory Activity (IC50, nM) MAO-A
Where a name gives a salt, the structure may show the parent alone.

Worked examples follow.
CN(C)c1ccc(C#Cc2ccc(Cn3cnn(C/C(=C/F)CN)c3=O)s2)cn1 = 30000 nM
CCn1cc(-c2ccc3sc(Cn4cnn(C/C(=C/F)CN)c4=O)cc3c2)cn1 = > 100000 nM

Quick note, IC50 for NC/C(=C\F)Cn1ncn(Cc2ccc(/C=C/c3ccc(F)cc3)s2)c1=O [Example 117, hydrochloride] landed at 93000 nM
